# Experimental target: full-length SHP2 protein (Homo sapiens, UniProt Q06124)
# Sequence (Q06124 whole entry): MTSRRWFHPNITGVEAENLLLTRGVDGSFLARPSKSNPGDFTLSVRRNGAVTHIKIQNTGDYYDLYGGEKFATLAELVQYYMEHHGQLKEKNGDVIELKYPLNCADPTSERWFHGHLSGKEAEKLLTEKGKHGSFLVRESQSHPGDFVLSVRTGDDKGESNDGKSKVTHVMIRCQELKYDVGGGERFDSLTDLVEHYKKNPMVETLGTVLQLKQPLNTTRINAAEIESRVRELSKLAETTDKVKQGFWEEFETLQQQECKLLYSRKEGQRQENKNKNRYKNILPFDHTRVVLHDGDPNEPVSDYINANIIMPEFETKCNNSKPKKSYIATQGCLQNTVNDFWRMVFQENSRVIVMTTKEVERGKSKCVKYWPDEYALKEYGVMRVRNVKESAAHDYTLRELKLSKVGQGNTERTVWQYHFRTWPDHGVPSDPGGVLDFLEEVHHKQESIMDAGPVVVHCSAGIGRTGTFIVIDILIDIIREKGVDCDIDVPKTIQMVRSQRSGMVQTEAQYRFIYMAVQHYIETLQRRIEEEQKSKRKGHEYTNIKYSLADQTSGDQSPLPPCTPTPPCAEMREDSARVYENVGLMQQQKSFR
pIC50: −log10 of the molar value.
Assay endpoint: pIC50

Compound	Experimental target	Result
C[C@@H]1OCC2(CCN(c3nc4cnn(-c5ccc6c(cnn6C)c5)c4nc3CO)CC2)[C@@H]1N	full-length SHP2 protein (Homo sapiens, UniProt Q06124)	> 7.30
C[C@@H]1OCC2(CCN(c3nc4cnn(-c5ccc6nn(C)cc6c5Cl)c4nc3CO)CC2)[C@@H]1N	full-length SHP2 protein (Homo sapiens, UniProt Q06124)	> 7.30
CCn1ncc2ccc(-n3ncc4nc(N5CCC6(CC5)CO[C@@H](C)[C@H]6N)c(CO)nc43)cc21	full-length SHP2 protein (Homo sapiens, UniProt Q06124)	> 7.30
C[C@@H]1OCC2(CCN(c3nc4cnn(-c5ccnc(N)c5Cl)c4nc3CO)CC2)[C@@H]1N [WO2021148010A1 Example 5, reference compound]	full-length SHP2 protein (Homo sapiens, UniProt Q06124)	6.30 to 7.30
Cc1nc(N2CCC3(CC2)CO[C@@H](C)[C@H]3N)c(CO)nc1Sc1ccnc(N)c1Cl [RMC-4630, reference compound]	full-length SHP2 protein (Homo sapiens, UniProt Q06124)	> 7.30
